TEST_TARGET: HCV NS3 protease domain genotype 3a (Hepatitis C virus genotype 3a, UniProt Q81258)
Sequence (Q81258 whole entry, looked up, the tested form may be a part): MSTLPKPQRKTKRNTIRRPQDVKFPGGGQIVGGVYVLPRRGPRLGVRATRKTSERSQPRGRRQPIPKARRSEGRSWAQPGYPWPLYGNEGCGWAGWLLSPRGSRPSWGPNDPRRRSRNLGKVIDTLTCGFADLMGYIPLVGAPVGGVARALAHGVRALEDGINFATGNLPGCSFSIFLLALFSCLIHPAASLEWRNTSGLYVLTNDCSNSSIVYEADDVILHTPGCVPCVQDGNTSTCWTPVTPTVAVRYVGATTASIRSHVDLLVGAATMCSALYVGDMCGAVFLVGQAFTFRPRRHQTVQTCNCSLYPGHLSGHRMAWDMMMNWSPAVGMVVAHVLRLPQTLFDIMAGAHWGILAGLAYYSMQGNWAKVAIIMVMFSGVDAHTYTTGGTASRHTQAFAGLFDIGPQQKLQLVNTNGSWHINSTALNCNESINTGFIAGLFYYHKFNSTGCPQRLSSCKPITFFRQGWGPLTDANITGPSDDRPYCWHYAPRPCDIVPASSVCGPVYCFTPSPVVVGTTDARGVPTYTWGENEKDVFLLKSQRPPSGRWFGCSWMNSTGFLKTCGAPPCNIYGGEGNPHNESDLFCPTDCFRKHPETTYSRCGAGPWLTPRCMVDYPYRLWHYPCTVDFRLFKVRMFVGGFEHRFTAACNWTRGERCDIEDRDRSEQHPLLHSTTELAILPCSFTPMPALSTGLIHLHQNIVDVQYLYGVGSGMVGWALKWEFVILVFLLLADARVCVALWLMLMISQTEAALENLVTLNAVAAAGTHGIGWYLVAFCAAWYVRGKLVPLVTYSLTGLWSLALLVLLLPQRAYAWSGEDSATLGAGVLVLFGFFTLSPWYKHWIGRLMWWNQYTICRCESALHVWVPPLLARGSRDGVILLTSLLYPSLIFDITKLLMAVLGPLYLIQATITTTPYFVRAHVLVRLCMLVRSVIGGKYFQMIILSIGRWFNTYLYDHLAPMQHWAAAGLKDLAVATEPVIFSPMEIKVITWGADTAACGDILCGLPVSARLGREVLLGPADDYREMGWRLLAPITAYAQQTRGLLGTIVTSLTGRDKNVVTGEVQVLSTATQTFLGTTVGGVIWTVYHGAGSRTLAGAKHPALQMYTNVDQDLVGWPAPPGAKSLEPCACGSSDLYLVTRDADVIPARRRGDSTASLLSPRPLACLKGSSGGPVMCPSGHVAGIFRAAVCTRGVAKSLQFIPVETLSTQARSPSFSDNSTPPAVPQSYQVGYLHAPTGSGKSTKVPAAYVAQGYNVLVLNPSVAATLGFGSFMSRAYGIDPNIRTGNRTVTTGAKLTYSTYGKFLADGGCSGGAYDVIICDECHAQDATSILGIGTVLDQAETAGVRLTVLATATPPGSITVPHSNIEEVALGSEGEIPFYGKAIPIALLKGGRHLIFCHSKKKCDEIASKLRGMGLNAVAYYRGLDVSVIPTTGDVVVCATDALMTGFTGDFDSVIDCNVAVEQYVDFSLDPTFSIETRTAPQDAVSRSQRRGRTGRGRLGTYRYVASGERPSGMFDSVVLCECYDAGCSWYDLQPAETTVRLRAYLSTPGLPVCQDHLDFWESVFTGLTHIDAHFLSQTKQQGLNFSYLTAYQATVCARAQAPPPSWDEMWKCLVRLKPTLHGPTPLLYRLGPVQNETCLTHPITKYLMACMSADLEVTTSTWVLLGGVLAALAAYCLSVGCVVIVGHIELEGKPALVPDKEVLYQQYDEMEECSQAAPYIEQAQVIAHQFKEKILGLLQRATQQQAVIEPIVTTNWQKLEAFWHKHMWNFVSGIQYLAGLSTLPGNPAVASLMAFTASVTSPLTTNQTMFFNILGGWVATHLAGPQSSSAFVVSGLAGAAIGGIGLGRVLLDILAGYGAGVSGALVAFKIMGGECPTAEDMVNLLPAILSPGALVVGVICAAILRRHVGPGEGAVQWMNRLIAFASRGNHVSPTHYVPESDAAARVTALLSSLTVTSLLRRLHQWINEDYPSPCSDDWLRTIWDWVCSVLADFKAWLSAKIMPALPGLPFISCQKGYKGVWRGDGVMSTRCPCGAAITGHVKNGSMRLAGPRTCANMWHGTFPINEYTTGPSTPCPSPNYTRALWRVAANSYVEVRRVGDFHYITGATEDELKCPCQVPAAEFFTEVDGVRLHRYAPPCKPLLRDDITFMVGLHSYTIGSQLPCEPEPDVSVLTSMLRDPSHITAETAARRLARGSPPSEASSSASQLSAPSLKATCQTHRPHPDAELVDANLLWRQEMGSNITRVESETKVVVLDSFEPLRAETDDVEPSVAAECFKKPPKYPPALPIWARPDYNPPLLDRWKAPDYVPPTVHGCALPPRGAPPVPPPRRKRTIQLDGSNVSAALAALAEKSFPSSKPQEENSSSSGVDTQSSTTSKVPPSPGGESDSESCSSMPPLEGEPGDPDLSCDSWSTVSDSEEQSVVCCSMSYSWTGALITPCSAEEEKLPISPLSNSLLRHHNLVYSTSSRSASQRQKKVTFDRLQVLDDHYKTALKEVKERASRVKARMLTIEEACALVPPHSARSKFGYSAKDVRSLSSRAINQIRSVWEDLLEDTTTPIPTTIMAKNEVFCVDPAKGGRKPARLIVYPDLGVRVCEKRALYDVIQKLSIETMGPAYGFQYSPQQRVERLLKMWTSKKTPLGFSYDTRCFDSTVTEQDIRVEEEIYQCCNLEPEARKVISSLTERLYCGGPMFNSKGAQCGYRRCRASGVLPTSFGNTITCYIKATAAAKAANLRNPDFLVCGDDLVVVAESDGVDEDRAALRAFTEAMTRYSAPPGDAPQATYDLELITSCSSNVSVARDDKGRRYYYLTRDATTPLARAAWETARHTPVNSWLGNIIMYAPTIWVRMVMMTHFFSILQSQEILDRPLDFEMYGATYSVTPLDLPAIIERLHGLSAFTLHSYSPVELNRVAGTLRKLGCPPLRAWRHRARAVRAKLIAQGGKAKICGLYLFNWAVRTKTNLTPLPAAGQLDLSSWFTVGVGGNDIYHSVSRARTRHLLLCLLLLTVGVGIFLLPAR
Mark class 1 for Ki under 100 pM, class 0 if at or over.

Is Ki of "CC[C@@H]1[C@@H]2CN(C(=O)[C@H](C(C)(C)C)NC(=O)O[C@@H]3C[C@H]3CC/C=C/C(F)(F)c3nc4ccc(OC)cc4nc3O2)[C@@H]1C(=O)N[C@]1(C(=O)NS(=O)(=O)C2(C)CC2)C[C@H]1C(F)F" strictly below 100 pM?
class 1

Is Ki of "CC[C@@H]1[C@@H]2CN(C(=O)[C@H](C(C)(C)C)NC(=O)O[C@@H]3CCCC[C@H]3CCCCCc3nc4ccc(OC)cc4nc3O2)[C@@H]1C(=O)N[C@]1(C(=O)NS(=O)(=O)C2CC2)C[C@H]1C(F)F" strictly below 100 pM?
class 1

Is Ki of "C[C@@H]1[C@@H]2CN(C(=O)[C@H](C(C)(C)C)NC(=O)O[C@@H]3C[C@@H]4C[C@@H]4[C@H]3CCCCCc3nc4ccc(Cl)cc4nc3O2)[C@@H]1C(=O)N[C@]1(C(=O)NS(=O)(=O)C2CC2)C[C@H]1C(F)F" strictly below 100 pM?
class 1

Is Ki of "CC[C@@H]1[C@@H]2CN(C(=O)[C@H](C(C)(C)C)NC(=O)O[C@]3(C)CCC[C@H]3CCCCCc3nc4ccc(OC)cc4nc3O2)[C@@H]1C(=O)N[C@]1(C(=O)NS(=O)(=O)C2(C)CC2)C[C@H]1C(F)F" strictly below 100 pM?
class 0

Is Ki of CC[C@@H]1[C@@H]2CN(C(=O)[C@H](C(C)(C)C)NC(=O)O[C@]3(C(F)(F)F)CCCC3CCCCCc3nc4ccc(OC)cc4nc3O2)[C@@H]1C(=O)N[C@]1(C(=O)NS(=O)(=O)C2(C)CC2)C[C@H]1C(F)F (some centres unmarked) strictly below 100 pM?
class 0

Is Ki of COc1ccc2nc3c(nc2c1)O[C@H]1CN(C(=O)[C@H](C(C)(C)C)NC(=O)O[C@@H]2CCN(C(C)=O)C2CCCCC3)[C@H](C(=O)N[C@]2(C(=O)NS(=O)(=O)C3(C)CC3)C[C@H]2C(F)F)[C@@H]1C (some centres unmarked) strictly below 100 pM?
class 0

Is Ki of "COc1ccc2nc3c(nc2c1)O[C@H]1CN(C(=O)[C@H](C(C)(C)C)NC(=O)O[C@@H]2C[C@@H]4C[C@@H]4[C@H]2CCCCC3(F)F)[C@H](C(=O)N[C@]2(C(=O)NS(=O)(=O)C3CC3)C[C@H]2C(F)F)[C@@H]1C" strictly below 100 pM?
class 1

Is Ki of "CCC[C@@H]1[C@@H]2CN(C(=O)[C@H](C(C)(C)C)NC(=O)O[C@@H]3C[C@H]3CCCCCc3nc4ccc(OC)cc4nc3O2)[C@@H]1C(=O)N[C@]1(C(=O)NS(=O)(=O)C2(C)CC2)C[C@H]1C(F)F" strictly below 100 pM?
class 0

----------
System: genotype 4a (ED43) stable HCV replicon in Huh-7-derived cells
ASSAY_INFO: Stable subgenomic HCV replicon EC50, genotype 4a (Renilla luciferase)
Assay type: cell-based, hepatitis C virus
ASSAY_CONDITIONS: Hepatitis C virus, 72 h, read-out: EC50 4A RLUC
pEC50: −log10 of the molar value.
So basically: pEC50 at 8 or higher? That is rule met. Lower than 8? That is rule not met.

Item "CC[C@@H]1[C@@H]2CN(C(=O)[C@H](C(C)(C)C)NC(=O)O[C@]3(C)CCC[C@H]3CCCCCc3nc4ccc(OC)cc4nc3O2)[C@@H]1C(=O)N[C@]1(C(=O)NS(=O)(=O)C2(C)CC2)C[C@H]1CCF" with pEC50 of 8 or above?
rule not met

Item COc1ccc2nc3c(nc2c1)O[C@H]1CN(C(=O)[C@H](C(C)(C)C)NC(=O)O[C@@H]2CCN(C(C)=O)C2CCCCC3)[C@H](C(=O)N[C@]2(C(=O)NS(=O)(=O)C3(C)CC3)C[C@H]2C(F)F)[C@@H]1C (some centres unmarked) with pEC50 of 8 or above?
rule not met

Item "COc1ccc2nc3c(nc2c1)O[C@H]1CN(C(=O)[C@H](C(C)(C)C)NC(=O)O[C@@H]2C[C@@H]4C[C@@H]4[C@H]2CCCCC3)[C@H](C(=O)N[C@]2(C(=O)NS(=O)(=O)C3CC3)C[C@H]2CC(F)F)[C@@H]1C" with pEC50 of 8 or above?
rule met

Item "COc1ccc2nc3c(nc2c1)O[C@H]1CN(C(=O)[C@H](C(C)(C)C)NC(=O)O[C@@H]2C[C@@H]4C[C@@H]4[C@H]2CCCCC3)[C@H](C(=O)N[C@]2(C(=O)NS(=O)(=O)C3(C)CC3)C[C@H]2C(F)F)[C@@H]1C" with pEC50 of 8 or above?
rule met

Item "CC[C@@H]1[C@@H]2CN(C(=O)[C@H](C(C)(C)C)NC(=O)O[C@@H]3CCC[C@H]3CCCCCc3nc4ccc(OC)cc4nc3O2)[C@@H]1C(=O)N[C@]1(C(=O)NS(=O)(=O)C2(C)CC2)C[C@H]1C(F)F" with pEC50 of 8 or above?
rule not met
